target: human CB1 receptor (Homo sapiens); construct: expressed in transfected cells; host or cells: Chinese Hamster Ovary (CHO) cells; test: Efficacy and potency at the human CB1 receptor expressed in CHO cells (luciferase reporter gene); assay type: cell-based; conditions: pEC50, CHO cells expressing human CB1 receptor and luciferase reporter gene; 5 h incubation at 37° C.
Counter-ions that a name gives are not always drawn.
readout-kind: pEC50
// pEC50 is dimensionless: -log10 of concentration (M)

Prompt: Retrieve pEC50 on human CB1 receptor (Homo sapiens); query O=C(c1cn2c3c(cccc13)OC[C@H]2C1CCCCC1)N1CCN2CCCC[C@H]2C1 [Example 2, hydrochloride salt]
Response: 8.00

---

molecular target: human CB1 receptor (Homo sapiens, UniProt P21554); construct: expressed in transfected cells; host or cells: Chinese Hamster Ovary (CHO) cells; test: Efficacy and potency at the human CB1 receptor expressed in CHO cells (luciferase reporter gene); type: cell-based; conditions: CHO cells expressing human CB1 receptor and luciferase reporter gene; 5 h incubation at 37° C.
Sequence (P21554 whole entry): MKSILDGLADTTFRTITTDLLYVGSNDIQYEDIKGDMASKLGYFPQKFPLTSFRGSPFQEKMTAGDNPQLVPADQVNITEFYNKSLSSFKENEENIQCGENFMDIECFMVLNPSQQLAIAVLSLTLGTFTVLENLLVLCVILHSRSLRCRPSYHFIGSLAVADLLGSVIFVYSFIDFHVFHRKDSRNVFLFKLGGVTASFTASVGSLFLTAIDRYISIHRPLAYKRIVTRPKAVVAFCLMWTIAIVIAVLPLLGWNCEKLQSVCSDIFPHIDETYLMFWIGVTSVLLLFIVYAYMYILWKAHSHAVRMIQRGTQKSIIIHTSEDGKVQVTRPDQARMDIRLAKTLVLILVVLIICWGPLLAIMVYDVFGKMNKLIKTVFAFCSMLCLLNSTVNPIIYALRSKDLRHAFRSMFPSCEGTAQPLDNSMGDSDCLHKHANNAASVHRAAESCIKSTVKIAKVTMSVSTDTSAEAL
readout-kind: pEC50
Give the figure by itself; no unit, no explanation.

| sample-smiles | pEC50 |
| --- | --- |
| COCCN1[C@H](C)CN(C(=O)c2cn3c4c(cccc24)OC[C@H]3C2CCCCC2)C[C@@H]1C.Cl | 8.3 |
| CCN1[C@H](C)CN(C(=O)c2cn3c4c(cccc24)OC[C@H]3C2CCCCC2)C[C@@H]1C.Cl | 8.4 |
| C[C@@H]1CN(C(=O)c2cn3c4c(cccc24)OC[C@H]3C2CCCCC2)C[C@H](C)N1C.Cl | 8.2 |
| C[C@H]1CN(C(=O)c2cn3c4c(cccc24)OC[C@H]3C2CCCCC2)CCN1C.Cl | 7.8 |
| CN1CCN(C(=O)c2cn3c4c(cccc24)OC[C@H]3C2CCCCC2)CC1.Cl | 7.0 |
| CCN1CCN(C(=O)c2cn3c4c(cccc24)OC[C@H]3C2CCCCC2)CC1.Cl | 7.5 |

Prompt: Assign pEC50 to the following record: "C[C@@H]1CN(C(=O)c2cn3c4c(cccc24)OC[C@H]3C2CCCCC2)C[C@H](C)N1CCO.Cl"
Response: 8.2

---

biological target: human CB1 receptor (Homo sapiens, UniProt P21554); construct: expressed in transfected cells; host or cells: Chinese Hamster Ovary (CHO) cells; assay: Efficacy and potency at the human CB1 receptor expressed in CHO cells (luciferase reporter gene); format: cell-based; settings: CHO cells expressing human CB1 receptor and luciferase reporter gene; 5 h incubation at 37° C.; read-out: pEC50 (converted)
Structures can show the parent of a compound that is named as a salt.
Mark each entry true (1) if its EC50 sits below 0.05 µM, and false (0) for all others.

| molecule | experimental-system | class-name |
| --- | --- | --- |
| CN1CCN(C(=O)c2cn3c4c(cccc24)CCC3C2CCCCC2)CC1 (single isomer, unassigned; (+)) [Example 14, hydrochloride salt] | human CB1 receptor (Homo sapiens, UniProt P21554) | false (0) |
| CCN1CCN(C(=O)c2cn3c4c(cccc24)CCC3C2CCCCC2)CC1 (single isomer, unassigned; (-)) [Example 15, hydrochloride salt] | human CB1 receptor (Homo sapiens, UniProt P21554) | true (1) |
| CN1CCN(C(=O)c2cn3c4c(cccc24)CCC3C2CCCCC2)CC1 (single isomer, unassigned; (-)) [Example 16, hydrochloride salt] | human CB1 receptor (Homo sapiens, UniProt P21554) | true (1) |

Prompt: Input CCN1CCN(C(=O)c2cn3c4c(cccc24)CCC3C2CCCC2)CC1 (single isomer, unassigned; (-)) [Example 12B, hydrochloride salt] ; condition: EC50 strictly below 0.05 µM. Does it hold?
Response: true (1)
